Tested on: BDF1 mice, P388 leukemia ip, median survival T/C
Test Summary: NCI In Vivo Anticancer Drug Screen. Data for tumor model P388 Leukemia (intraperitoneal) in B6D2F1 (BDF1) mice
Particulars: endpoint: median survival time; dose: 12.0 mg/kg/injection; schedule: Q04DX003 (ip); vehicle: saline
Experimental: The antitumor activity of compounds was measured in mice bearing transplantable tumors. Survival or tumor size were measured and the results are expressed as the measurement made in the treated group (T) divided by the measurement made in the vehicle treated control group (C). The tumor model used in this assay is P388 Leukemia (intraperitoneal) in B6D2F1 (BDF1) mice
Inconclusive results and toxic doses are left out. Rule for the calls: active = survival T/C of 150% or more; inactive = T/C below 125% in these data.
Result category, one only: active, inactive

Enquiry: Give the logged outcome of this assay for the following compound: CCC[N+](C)(C)CCCCOCCCC[N+](C)(C)CCC
Return: inactive

Enquiry: How did this test come out for C/C=C1\CN2CCc3c([nH]c4ccccc34)C2CC1Cc1nccc2c1[nH]c1ccccc12 (centres undefined) ?
Return: inactive

Enquiry: Per the records of this test, what outcome belongs to CC1CN1c1nc(N2CC2C)nc(N2CC2C)n1 (centres undefined) ?
Return: inactive

Enquiry: Assay result, entry COc1cccc2c1C(=O)c1c(O)c3c(c(O)c1C2=O)C[C@@](O)(/C(C)=N/NC(=O)c1ccccc1)C[C@@H]3OC1CC(N)C(O)C(C)O1 (some centres undefined) — outcome?
Return: active

---

Record form. Attribute: T/C. Fill in for each entry.
System: BDF1 mice, P388 leukemia ip, median survival T/C
Test Summary: NCI In Vivo Anticancer Drug Screen. Data for tumor model P388 Leukemia (intraperitoneal) in B6D2F1 (BDF1) mice
Particulars: endpoint: median survival time; dose: 100.0 mg/kg/injection; schedule: Q01DX001 (ip); vehicle: saline sonified; higher = longer survival
Inconclusive results and toxic doses are left out.

Entry CCCCCCCCCCCCSCCCCSCCCCCCCCCCCC — recorded T/C = 100 % of control

CSC(=S)NNC(=O)C1CCCCC1 has a reported T/C of 100 % of control

Recorded result, COC(=O)c1oc(C(=O)OC)c(OCc2ccccc2)c1OCc1ccccc1 , T/C: 109 % of control

Reported T/C for CCCCCCCCCCCCCCSCCSCCSCCCCCCCCCCCCCC was 86 % of control

// recorded T/C for CCCCCCCCCC(=O)NN : 104 % of control

Memo: Nc1nc(CNc2ccc(Cl)cc2)nc(Nc2cccc(Cl)c2)n1 , reported T/C: 100 % of control

Looking up CC(O)C(=O)N1Cc2cc3ccccc3nc2C1 (configuration not stated) , I found its T/C recorded as 104 % of control

---

Test system: BDF1 mice, P388 leukemia ip, median survival T/C
Test Summary: NCI In Vivo Anticancer Drug Screen. Data for tumor model P388 Leukemia (intraperitoneal) in B6D2F1 (BDF1) mice
Particulars: endpoint: median survival time; dose: 6.25 mg/kg/injection; schedule: Q01DX009 (ip); vehicle: saline
Inconclusive results and toxic doses are left out. The calls were made as follows: active = survival T/C of 150% or more; inactive = T/C below 125% in these data.
Choose the fitting class; nothing outside active, inactive is accepted.

Enquiry: What was the test verdict on Cn1cnc([N+](=O)[O-])c1Sc1nc(N)nc2c1ncn2C1CC(O)C(CO)O1 (stereo not drawn) ?
Return: active

Enquiry: Write down the call the test reported for this compound. Item: O=[N+]([O-])c1ccc(N2CCOCC2)c2c1no[n+]2[O-]
Return: inactive

Enquiry: # lookup: test call for [Cl][Eu]([Cl])[Cl]
Return: inactive

Enquiry: Please share the test call associated with O=C(O)C1CCSS1 (stereo not drawn) .
Return: inactive

Enquiry: Which outcome did this test record for the compound COC(=O)C1C2CC[N+]3(CCCCC13)O2 (stereo not drawn) ?
Return: inactive

Enquiry: Which outcome was assigned to CN(C)CCCN1c2ccccc2Sc2ccc(F)cc21 in this test?
Return: inactive

Enquiry: I'd appreciate the recorded outcome for CC1NCCNCCNCCNC(C)c2cccc1n2 (stereo not drawn) from this test.
Return: inactive

Enquiry: # fetch the recorded call for CN(C)Cc1c[nH]c2nccnc12 here
Return: inactive

---

Provide the recorded T/C for the entries that follow.
Test system: BDF1 mice, P388 leukemia ip, median survival T/C
Test Summary: NCI In Vivo Anticancer Drug Screen. Data for tumor model P388 Leukemia (intraperitoneal) in B6D2F1 (BDF1) mice
Particulars: endpoint: median survival time; dose: 25.0 mg/kg/injection; schedule: Q04DX003 (ip); vehicle: Klucel (hydroxypropylcellulose) (HPC); higher = longer survival
Inconclusive results and toxic doses are left out.

Query CCOC(=O)C(Cc1ccc(N(CCCl)CCCl)cc1)NP1(=O)NCCCO1 (stereo unspecified) yields T/C of 272 % of control

Query O=C(C=P(c1ccccc1)(c1ccccc1)c1ccccc1)CCl yields T/C of 100 % of control

Data point: O=C1C(C(O)c2ccccc2)SC(c2ccccc2)N1c1ccccc1 (stereo unspecified) ; T/C = 96 % of control

Query O=C(CCl)N1CCc2ccccc21 yields T/C of 90 % of control

Sample COC(=O)/C(=N\NS(=O)(=O)c1ccc(C)cc1)c1ccccc1 ; T/C observed: 98 % of control

The reported T/C of the compound O=C(O)CNC(=O)CNC(=O)C(Br)Cc1ccccc1 (stereo unspecified) was 104 % of control

The reported value for O=C(CCN1CC1)Nc1ccc(Cl)c(Cl)c1 in terms of T/C is 90 % of control

Noted for Cc1ccc(C(=O)N/N=C/C(=O)O)cc1 : its T/C reads 106 % of control

Input Cc1c(C(=O)O)nc(/C=C/C(Cl)(Cl)Cl)[nH]c1=O . Output T/C: 102 % of control

For this compound ( CC[n+]1ccc(Cc2ccc([N+](=O)[O-])cc2)cc1 ), measured T/C is 100 % of control

Reported T/C for O=C(NCCCCN1CC1)C(=O)NCCCCN1CC1 was 221 % of control

---

Record form. Attribute: T/C. Fill in for each entry.
System: BDF1 mice, P388 leukemia ip, median survival T/C
Test Summary: NCI In Vivo Anticancer Drug Screen. Data for tumor model P388 Leukemia (intraperitoneal) in B6D2F1 (BDF1) mice
Particulars: endpoint: median survival time; dose: 400.0 mg/kg/injection; schedule: Q01DX001 (ip); vehicle: saline; higher = longer survival
Inconclusive results and toxic doses are left out.

Looking up O=C1c2ccccc2C(=O)N1CNc1cccc(NCN2C(=O)c3ccccc3C2=O)c1 , I see its T/C listed as 90 % of control

GET /value?item= O=c1[nH]cc(F)c(=O)[nH]1 &field=T/C returns 100 % of control

Short answer for O=c1[nH]cnc2c1ncn2C1OC(CF)C(O)C1O (centres undefined) : T/C was 108 % of control

For CC(=O)C(C)(c1ccccc1)N(Cc1ccccc1)C(=O)c1ccccc1 (centres undefined) the compound record lists T/C as 104 % of control

---

Tested on: BDF1 mice, P388 leukemia ip, median survival T/C
Test Summary: NCI In Vivo Anticancer Drug Screen. Data for tumor model P388 Leukemia (intraperitoneal) in B6D2F1 (BDF1) mice
Particulars: endpoint: median survival time; dose: 150.0 mg/kg/injection; schedule: Q01DX009 (ip); vehicle: Klucel (hydroxypropylcellulose) (HPC); higher = longer survival
Toxic doses and inconclusive results are not listed.
Quantity Kind: T/C

Consider COc1cc2c(cc1OC)-c1cc3cc(OC)c(OC)cc3c(CCC(=O)O)[n+]1CC2 . Its measured T/C is 101 % of control

Notebook: O=NN(CCCl)C(=O)Nc1ccc(NC(=O)N(CCCl)N=O)cc1 , T/C read as 115 % of control

The reported T/C of the molecule CC(=O)NNC(=O)c1ccccc1 was 110 % of control

Lab book: T/C of CC1CN(C(=O)Nc2ccc(Cl)cc2)CC(C)O1 (stereo unspecified) noted as 110 % of control

So, c1ccc(CSSCc2ccccc2)cc1 ? Its T/C was 100 % of control

For O=C(c1ccccc1)C1(Br)CCCCC1 the molecule record lists T/C as 95 % of control

---

System: BDF1 mice, P388 leukemia ip, median survival T/C
Test Summary: NCI In Vivo Anticancer Drug Screen. Data for tumor model P388 Leukemia (intraperitoneal) in B6D2F1 (BDF1) mice
Particulars: endpoint: median survival time; dose: 400.0 mg/kg/injection; schedule: Q01DX009 (ip); vehicle: other; higher = longer survival
Toxic doses and inconclusive results are not listed.
Quantity Kind: T/C

Given item CC(=O)c1cccc(OCc2ccccc2)c1 , the value recorded as its T/C is 109 % of control

Record CCOC(=O)C(C(C)=O)C(=O)OCC . Reported T/C: 88 % of control

So for c1ccc(C([CH2][Hg][CH2]C(c2ccccc2)c2ccccc2)c2ccccc2)cc1 , the logged T/C turned out to be 114 % of control

Please fill in: T/C reported for CC1(c2cccc([N+](=O)[O-])c2)OCCO1 = 100 % of control

Measured T/C of Cc1ccc(CNc2ccc(F)cc2)cc1 : 104 % of control
